Just for reference, paper PMC8190884 is where these values come from.

# kobs ± standard deviation per entry
Target: HIV reverse transcriptase (RT) (Human immunodeficiency virus type 1 group M subtype B, UniProt P04585)
Assay: Pre-steady-state observed incorporation rate constant
Type: biochemical, HIV-1
Conditions: 5 μM nucleotide, 6 mM Mg2+, 37 °C

Here is how some compounds turned out for kobs ± standard deviation.
# COMPOUND, kobs ± standard deviation
records = [
    ("Cc1cn([C@H]2C[C@H](O)[C@@](C)(COP(=O)(O)OP(=O)(O)OP(=O)(O)O)O2)c(=O)[nH]c1=O [4′-C-methyl dTTP]", "3.9 ± 2.8 s^–1"),
    ("Cc1cn([C@@H]2C[C@H](COP(=O)(O)OP(=O)(O)OP(=O)(O)O)[C@@H](O)C2)c(=O)[nH]c1=O [D-carba dTTP]", "1.3 ± 0.1 s^–1"),
]

Problem: Give me measured kobs ± standard deviation, please, for this compound: Cc1cn([C@H]2C[C@H](F)[C@@H](COP(=O)(O)OP(=O)(O)OP(=O)(O)O)O2)c(=O)[nH]c1=O [3′-fluoro dTTP]
Solution: 1.5 ± 0.1 s^–1
